# MEASUREMENT NOTES: chemical genetic growth profiling, strain panel (AID 1159580);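 further: tested at 20 µM; growth read once vehicle control cultures reached saturation at 30 °C; 1 = growth at the plate median or of vehicle wells; lower values mean less growth of the strain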
# SETUP CONDITIONS: S. cerevisiae deletion strains, growth OD, locus YDL101C, strain DUN1, active compounds read low
Among all 5,500 compounds or so, about 2,000 (36%) were called active. Not shown: some 18% with an inconclusive outcome. The list shows a part of the results.
READOUT NAME: normalized growth
Note: the reply should be a number with no unit written.

Recorded results for 3 molecules are shown here.
- MOLECULE: "OC(CCN1CCCCC1)(c1ccccc1)C1CCCCC1 (stereo not given)"
  normalized growth: 1.01
- MOLECULE: "O=C(c1cccs1)N(Cc1cccnc1)Cc1ccc(Cl)cc1Cl"
  normalized growth: 0.97
- MOLECULE: "CC(C)(C)C(=O)N(Cc1cccnc1)Cc1ccc(Cl)cc1Cl"
  normalized growth: 0.985

Request: Fill in: normalized growth of O=C(c1ccc(Cl)cc1)N(Cc1ccccc1)Cc1cccnc1 is ___
Result: 0.987

Request: Same question for NC12CC3CC(CC(C3)C1)C2 please.
Result: 1.02

###

# MEASUREMENT NOTES: chemical genetic growth profiling, strain panel (AID 1159580);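 further: tested at 20 µM; growth read once vehicle control cultures reached saturation at 30 °C; 1 = growth at the plate median or of vehicle wells; lower values mean less growth of the strain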
# SETUP CONDITIONS: S. cerevisiae deletion strains, growth OD, locus YDR502C, strain sam2, active compounds read low
Screen size: about 5,500 compounds; about 2,000 (36%) were called active. Inconclusive results (about 18%) are left out. This is one part of the list.
READOUT NAME: normalized growth

- COMPOUND: "CNCc1ccccc1"
  READOUT NAME: "normalized growth"
  RESULT: "1 (inactive)"
- COMPOUND: "CC(C)(Sc1cc(C(C)(C)C)c(O)c(C(C)(C)C)c1)Sc1cc(C(C)(C)C)c(O)c(C(C)(C)C)c1"
  READOUT NAME: "normalized growth"
  RESULT: "1.02 (inactive)"
- COMPOUND: "Nc1c2c(nc3ccccc13)CCCC2"
  READOUT NAME: "normalized growth"
  RESULT: "1.02 (inactive)"
- COMPOUND: "Cc1cc(O)c2c(c1)Cc1cccc(O)c1C2=O"
  READOUT NAME: "normalized growth"
  RESULT: "1 (inactive)"
- COMPOUND: "COc1cc(C(=O)O[C@H]2CC[C@@]3(C)[C@@H]4CC[C@H]5[C@]6(O)C[C@H](O)[C@@]7(O)[C@@H](CN8C[C@@H](C)CC[C@H]8[C@@]7(C)O)[C@]6(O)C[C@@]53O[C@]24O)cc(OC)c1OC"
  READOUT NAME: "normalized growth"
  RESULT: "1 (inactive)"
- COMPOUND: "CCCCCCCCCCCC[C@H](C(=O)O)[C@@H](C)C(=O)O"
  READOUT NAME: "normalized growth"
  RESULT: "1.02 (inactive)"
- COMPOUND: "Nc1c2ccccc2nc2ccccc12 (tested in a mixture with another compound)"
  READOUT NAME: "normalized growth"
  RESULT: "0.606 (active)"
- COMPOUND: "NC(Cc1c[nH]c2ccccc12)C(=O)O (stereo unspecified)"
  READOUT NAME: "normalized growth"
  RESULT: "0.997 (inactive)"

Request: Fill in: normalized growth of NCCC(=O)N[C@@H](Cc1cnc[nH]1)C(=O)O is ___
Result: 0.997 (inactive)

Request: Same question for Cc1cc(C(C)(C)C)c(O)c(C(C)(C)C)c1 please.
Result: 0.952 (inactive)

Request: Same question for CCC(C)C(NC)C(=O)O (stereo unspecified) please.
Result: 0.997 (inactive)

Request: Same question for Nc1c2c(nc3ccccc13)CCCC2O (stereo unspecified) please.
Result: 0.998 (inactive)

Request: Same question for C/C=C(/C)C(=O)OC1CCC2(C)C3CCC4C5(O)CC(O)C6(O)C(CN7CC(C)CCC7C6(C)O)C5(O)CC42OC13O (stereo unspecified) please.
Result: 0.937 (inactive)
